Biological target: Human factor Xa (Homo sapiens, UniProt P00742)
Sequence (P00742 41-179 limits assumed): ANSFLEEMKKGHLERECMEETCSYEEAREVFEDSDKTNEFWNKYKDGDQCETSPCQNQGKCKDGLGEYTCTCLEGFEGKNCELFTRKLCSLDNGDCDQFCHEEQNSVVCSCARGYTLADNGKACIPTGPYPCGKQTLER
Sequence (P00742 235-488 limits assumed): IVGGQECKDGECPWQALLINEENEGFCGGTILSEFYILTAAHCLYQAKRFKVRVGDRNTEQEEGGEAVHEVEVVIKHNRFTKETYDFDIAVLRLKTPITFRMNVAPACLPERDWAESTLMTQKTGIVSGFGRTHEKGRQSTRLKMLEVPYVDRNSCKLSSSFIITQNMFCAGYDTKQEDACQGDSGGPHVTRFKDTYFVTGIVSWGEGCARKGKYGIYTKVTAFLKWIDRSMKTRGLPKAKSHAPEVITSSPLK
Assay: Xa Assay
Assay type: biochemical
Parameters: purchased Enzyme Research Laboratories, South Bend Ind
Details: inhibitor at 100 µM
Attribute: % Inhibition Factor Xa (100 µM)
Write the value in % as a bare number.

// known answers, use as guide
[
  {
    "Compound": "O=C(Cn1c(-c2ccc3c(c2)OCO3)c(Cl)nc(NCCc2ccc(Cl)cc2)c1=O)NCCc1ccncc1",
    "Measured target": "Human factor Xa (Homo sapiens, UniProt P00742)",
    "% Inhibition Factor Xa (100 µM), %": 0
  },
  {
    "Compound": "O=C(Cn1c(-c2ccc(Cl)cc2)c(Cl)nc(NCc2ccccc2)c1=O)NCCc1ccncc1 [Example E-0025]",
    "Measured target": "Human factor Xa (Homo sapiens, UniProt P00742)",
    "% Inhibition Factor Xa (100 µM), %": 0
  },
  {
    "Compound": "Cc1c(Cl)nc(NCCc2ccccc2)c(=O)n1CC(=O)NCCc1ccncc1",
    "Measured target": "Human factor Xa (Homo sapiens, UniProt P00742)",
    "% Inhibition Factor Xa (100 µM), %": 0
  },
  {
    "Compound": "O=C(Cn1c(-c2ccc(Cl)cc2)c(Cl)nc(NCc2ccncc2)c1=O)NCCc1ccncc1 [Example E-0032]",
    "Measured target": "Human factor Xa (Homo sapiens, UniProt P00742)",
    "% Inhibition Factor Xa (100 µM), %": 0
  }
]

Query string: For the compound shown here, O=C(Cn1c(CCc2ccccc2)c(Cl)nc(NCc2ccccc2)c1=O)NCCc1ccncc1 , give the reported % Inhibition Factor Xa (100 µM).
Result string: 0

Query string: For the compound shown here, O=C(Cn1c(Cc2ccccc2)c(Cl)nc(NCc2ccccc2)c1=O)NCCc1ccncc1 , give the reported % Inhibition Factor Xa (100 µM).
Result string: 6

Query string: For the compound shown here, O=C(Cn1c(CCc2ccccc2)c(Cl)nc(NCCc2ccccc2)c1=O)NCCc1ccncc1 , give the reported % Inhibition Factor Xa (100 µM).
Result string: 0

Query string: For the compound shown here, O=C(Cn1c(-c2cccc(Cl)c2)c(Cl)nc(NCCc2ccccc2)c1=O)NCCc1cccnc1 [Example E-0089] , give the reported % Inhibition Factor Xa (100 µM).
Result string: 4

----------
Target: recombinant soluble tissue factor and recombinant human factor VIIa (TF-VIIa) (Homo sapiens, UniProt P08709)
Construct: conversion of coagulation factor VII to VIIa by Xa; purchased American Diagnostica, Greenwich Conn; host or cells: VIIa purchased; soluble TF made in house in E. coli
Sequence (P08709 61-212 limits assumed): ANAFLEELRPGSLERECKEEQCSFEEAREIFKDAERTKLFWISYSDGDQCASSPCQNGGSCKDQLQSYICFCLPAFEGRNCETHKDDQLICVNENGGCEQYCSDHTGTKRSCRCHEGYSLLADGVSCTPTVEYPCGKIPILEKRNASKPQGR
Sequence (P08709 213-466 limits assumed): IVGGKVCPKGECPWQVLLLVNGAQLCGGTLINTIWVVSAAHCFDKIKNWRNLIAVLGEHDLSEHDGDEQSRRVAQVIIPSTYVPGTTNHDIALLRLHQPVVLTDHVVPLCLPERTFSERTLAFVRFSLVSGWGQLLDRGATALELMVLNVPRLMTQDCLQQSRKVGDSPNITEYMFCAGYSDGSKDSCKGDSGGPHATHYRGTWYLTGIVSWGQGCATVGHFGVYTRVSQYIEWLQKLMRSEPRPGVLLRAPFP
Sequence (P13726 33-251 partner limits assumed): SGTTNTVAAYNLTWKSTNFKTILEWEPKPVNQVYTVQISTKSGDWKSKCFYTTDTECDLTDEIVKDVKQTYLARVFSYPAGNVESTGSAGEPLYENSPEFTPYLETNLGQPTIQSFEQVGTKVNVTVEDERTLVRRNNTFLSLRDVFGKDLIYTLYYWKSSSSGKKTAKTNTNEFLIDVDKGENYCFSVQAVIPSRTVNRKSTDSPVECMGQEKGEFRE
Test: TF-VIIa Assay
Format: biochemical
Conditions: at 30 µM
Outcome measure: % Inhibition TF-VIIa (30 µM) (%)
Write the value in % as a bare number.

// known answers, use as guide
[
  {
    "Compound": "CCCCNc1nc(Cl)c(-c2ccccc2)n(CC(=O)NCc2ccc(C(=N)N)cc2)c1=O [Example 1517-35]",
    "% Inhibition TF-VIIa (30 µM), %": 33
  },
  {
    "Compound": "N=C(N)c1ccc(CNC(=O)C(Cc2ccccc2)n2c(-c3ccccc3)c(Cl)nc(NCCc3cccc(Cl)c3)c2=O)cc1 (stereo not shown) [Example 1517-20]",
    "% Inhibition TF-VIIa (30 µM), %": 22
  },
  {
    "Compound": "N=C(N)c1ccc(CNC(=O)C(Cc2ccccc2)n2c(-c3ccccc3)c(Cl)nc(NCCc3ccccc3)c2=O)cc1 (stereo not shown) [Example 1517-14]",
    "% Inhibition TF-VIIa (30 µM), %": 30
  }
]

Continue with the next compound.
Query string: For the compound shown here, N=C(N)c1ccc(CNC(=O)Cn2c(-c3ccccc3)c(Cl)nc(NCC3CC3)c2=O)cc1 [Example 1517-43] , give the reported % Inhibition TF-VIIa (30 µM).
Result string: 25
